target: CYP3A4 (Homo sapiens, UniProt P08684, S18F); test: UV-Vis spectral titration; assay type: binding
Sequence (P08684 13-503 S18F limits assumed): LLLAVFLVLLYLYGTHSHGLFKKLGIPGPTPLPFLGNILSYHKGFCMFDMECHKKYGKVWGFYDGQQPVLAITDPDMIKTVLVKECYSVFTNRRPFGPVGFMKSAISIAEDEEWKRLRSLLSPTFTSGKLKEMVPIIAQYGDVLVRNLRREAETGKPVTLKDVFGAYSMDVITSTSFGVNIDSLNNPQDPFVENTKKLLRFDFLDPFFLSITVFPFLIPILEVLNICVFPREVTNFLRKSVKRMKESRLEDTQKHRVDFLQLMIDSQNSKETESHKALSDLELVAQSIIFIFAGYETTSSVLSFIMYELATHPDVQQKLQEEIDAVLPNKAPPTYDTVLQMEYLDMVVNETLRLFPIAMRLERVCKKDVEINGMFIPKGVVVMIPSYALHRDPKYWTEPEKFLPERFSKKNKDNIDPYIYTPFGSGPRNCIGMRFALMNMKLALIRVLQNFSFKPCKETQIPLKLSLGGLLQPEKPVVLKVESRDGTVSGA
pKd: −log10 of the molar value.

# molecule, pKd
data = [
    ("CC(=O)[C@H]1CC[C@H]2[C@@H]3CCC4=CC(=O)CC[C@]4(C)[C@H]3CC[C@]12C [progesterone]", 4.51),
]

###

target: CYP3A4 (Homo sapiens, UniProt P08684, F213S/S18F); assay: UV-Vis spectral titration; format: binding
Sequence (P08684 13-503 S18F/F213S limits assumed): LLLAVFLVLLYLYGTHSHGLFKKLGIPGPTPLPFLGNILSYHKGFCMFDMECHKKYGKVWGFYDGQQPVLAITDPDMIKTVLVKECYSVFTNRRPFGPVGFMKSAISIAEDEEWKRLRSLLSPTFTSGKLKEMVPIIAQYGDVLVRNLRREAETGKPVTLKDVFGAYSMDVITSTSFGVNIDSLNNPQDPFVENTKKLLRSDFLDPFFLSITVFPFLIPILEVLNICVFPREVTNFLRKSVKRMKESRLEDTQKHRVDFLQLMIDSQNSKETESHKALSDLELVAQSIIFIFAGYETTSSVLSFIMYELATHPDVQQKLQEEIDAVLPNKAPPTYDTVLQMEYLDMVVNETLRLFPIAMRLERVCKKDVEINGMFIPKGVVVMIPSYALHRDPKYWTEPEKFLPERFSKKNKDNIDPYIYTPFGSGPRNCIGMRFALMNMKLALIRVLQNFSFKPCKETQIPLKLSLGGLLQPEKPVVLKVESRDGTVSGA
measured metric: Kd (µM)

# molecule, measured metric, units, readout number
records = [
    ("CC(=O)[C@H]1CC[C@H]2[C@@H]3CCC4=CC(=O)CC[C@]4(C)[C@H]3CC[C@]12C", "Kd", "µM", 24.2),
]

###

biological target: CYP3A4 (Homo sapiens, UniProt P08684, F213Y/S18F); test: UV-Vis spectral titration; format: binding
Sequence (P08684 13-503 S18F/F213Y limits assumed): as the sequence (P08684 13-503 S18F limits assumed) above, with F201Y counted along it
pKd: −log10 of the molar value.

# molecule, pKd
rows = [
    ("CC(=O)[C@H]1CC[C@H]2[C@@H]3CCC4=CC(=O)CC[C@]4(C)[C@H]3CC[C@]12C [progesterone]", 4.66),
]
